# System: HIV-1/LASV pseudovirus
# protocol.text: microbe, parasite or virus in culture
# Format: cell-based
# condition.info: 10 µM
Mark YES for reported Inhibition HIV/LASV of 90% or greater; mark NO for anything smaller.

* CN(C)Cc1cccc(-c2cc3cc(Br)ccc3nc2OCCc2cccc3ccccc23)c1 | NO
* CN(C)CCC(O)(c1cccc(F)c1)C1c2ccccc2Sc2ccccc21 (centres unmarked) | NO
* CN(C)Cc1ccc(-c2cc3cc(Br)ccc3nc2SCc2ccccc2)cc1 | YES
* COc1nc2ccccc2cc1C(O)(Cc1cccc(F)c1)c1ccccc1CN1CCOCC1 (centres unmarked) | NO
* CN1CCN(Cc2ccc(-c3cc4cc(Br)ccc4nc3OCc3cccc4ccccc34)cc2)CC1 | NO
* CN(C)Cc1cccc(-c2cc3cc(Br)ccc3nc2Nc2cccc3ccccc23)c1 | NO
* CN(C)Cc1ccc(-c2cc3cc(Br)ccc3nc2OCc2cccc(F)c2)cc1 | NO
* COc1nc2ccc(Br)cc2cc1C(c1ccccc1)N1CCN(C)c2ccccc21 (centres unmarked) | NO
* CN(C)Cc1ccc(-c2cc3cc(Br)ccc3nc2Oc2ccc(OCc3ccccc3)cc2)cc1 | YES
* CN(C)c1ncc2cc(-c3cc4cc(Br)ccc4nc3OCc3cccc4ccccc34)ccc2n1 | NO
* Brc1ccc2nc(Oc3cccc4ccccc34)c(-c3ccccc3)cc2c1 | NO
* CN(C)CCN1CCN(c2ccc(-c3cc4cc(Br)ccc4nc3OCc3cccc4ccccc34)cc2)CC1 | YES
* Brc1ccc2nc(OCc3cccc4ccccc34)c(-c3ccc(Cn4ccnc4)cc3)cc2c1 | NO
* CN(C)Cc1ccc(-c2cc3cc(Br)ccc3nc2OCc2ccncc2)cc1 | YES
* CN(C)Cc1ccc(-c2cc3cc(Br)ccc3nc2N2CCN(C)CC2)cc1 | YES
* Brc1ccc2nc(OCc3cccc4ccccc34)c(-c3ccc(CN4CCN(Cc5ccccc5)CC4)cc3)cc2c1 | NO
* COc1nc2ccccc2cc1C(O)(Cc1cccc(F)c1)c1cccc(CN(C)C)c1 (centres unmarked) | YES
* CN(C)Cc1cccc(-c2cc3cc(Br)ccc3nc2Sc2cccc(O)c2)c1 | YES
* CN(C)Cc1ccc(-c2cc3cc(Br)ccc3nc2OCc2cccc3ccccc23)cc1F | YES
* CNCCc1ccc(-c2cc3cc(Br)ccc3nc2OCc2cccc3ccccc23)cc1 | YES
* COc1nc2ccc(Br)cc2cc1C(c1ccccc1)C1(O)CCN(C)CC1 (centres unmarked) | YES
* CN(C)CCc1cccc(-c2cc3cc(Br)ccc3nc2OCc2cccc3ccccc23)c1 | NO
* COc1ccc2nc(OCc3cccc4ccccc34)c(-c3cccc(CN(C)C)c3)cc2c1 | NO
* COc1nc2ccc(Br)cc2cc1C(Nc1ccccc1OCCN(C)C)c1ccccc1 (centres unmarked) | NO
